- Experimental Protocol: Microsomal Stability Assay, mouse liver microsomes
- Format: in vitro ADME
- Condition Context: male, CD-1, pH 7.4; mouse liver microsomes 0.1 mg/mL, 0.1 uM compound
Below, each of the compounds is paired with its reported microsomal CLint at 0.1 uM value.

In the examples that follow, each entry is paired with its recorded microsomal CLint at 0.1 uM.
CS(=O)(=O)NCCOc1cnc(N[C@H]2CC[C@@H](Oc3nc(N4CCOCC4)cc4ncccc34)CC2)nc1 [Compound 67]; < 116 µL/min/mg
c1cnc2cc(N3CCOCC3)nc(O[C@H]3CC[C@@H](Nc4ncc(OCCN5CCOCC5)cn4)CC3)c2c1 [Compound 68]; < 116 µL/min/mg
NC(=O)COc1cnc(N[C@H]2CC[C@@H](Oc3nc(N4CCOCC4)cc4ncccc34)CC2)nc1 [Compound 60]; > 116 µL/min/mg
CN1CCN(C(=O)COc2cnc(N[C@H]3CC[C@@H](Oc4nc(N5CCOCC5)cc5ncccc45)CC3)nc2)CC1 [Compound 62]; < 116 µL/min/mg

Now for a further compound.
Incoming: Give microsomal CLint at 0.1 uM for CONC(=O)COc1cnc(N[C@H]2CC[C@@H](Oc3nc(N4CCOCC4)cc4ncccc34)CC2)nc1 [Compound 72]
Outgoing: > 116 µL/min/mg

###

- Target Of Assay: DNA-PK (Homo sapiens, UniProt P78527)
- Construct: purchased Invitrogen PR9107A
- Experimental Protocol: DNA-PK Assay for Biochemical Enzymatic Inhibition (ADP Glo Kinase assay)
- Condition Context: DNA-PK enzyme, Table 1
- Method: A biochemical assay was performed to identify IC50 values against DNA-PK activity in a two-step reaction with a kinase reaction followed by ADP Glo™ Kinase assay Kit (Promega V9102). Three-fold serial dilutions of compounds in DMSO were prepared in kinase assay buffer (50 mM HEPES pH 7.5, 20 mM MgCl2, 100 mM KCl, 50 μM DTT, 10 μg/ml calf thymus DNA, 0.01% Tween 20). […] DMSO controls were prepared to produce a maximum and minimum luminescence signal for normalization. […]
// reported IC50 for each item listed

Study these solved cases before continuing.
CN(C)C(=O)COc1cnc(N[C@H]2CC[C@@H](Oc3nc(N4CCOCC4)cc4ncc(Br)cc34)CC2)nc1 [Compound 178]; < 0.5 nM
Cn1c(=O)n(C2CCOCC2)c2nc(N[C@H]3CC[C@@H](Oc4nc(N5CCOCC5)cc5ncccc45)CC3)ncc21 [Compound 96]; < 0.5 nM

Incoming: Please report the measured IC50 for CN(C)C(=O)COc1cnc(N[C@H]2CC[C@@H](Oc3nc(N4CCOCC4)cc4ncc(C(=O)O)cc34)CC2)nc1 [Compound 180] tested on DNA-PK (Homo sapiens, UniProt P78527).
Outgoing: < 0.5 nM

Incoming: # return IC50 for CON(C)C(=O)COc1cnc(N[C@H]2CC[C@@H](Oc3nc(N4CCOCC4)cc4ncccc34)CC2)nc1 [Compound 58] , test system: DNA-PK (Homo sapiens, UniProt P78527)
Outgoing: < 0.5 nM

Incoming: Give IC50; test system DNA-PK (Homo sapiens, UniProt P78527); molecule CC(=O)NC(=O)c1cnc2cc(N3CCOCC3)nc(O[C@H]3CC[C@@H](n4ccnc4)CC3)c2c1 [Compound 167]
Outgoing: 1 to 10 nM

Incoming: Give IC50 only, for CONC(=O)c1cnc2cc(N3CCOCC3)nc(O[C@H]3CC[C@@H](n4ccnc4)CC3)c2c1 [Compound 171] , using DNA-PK (Homo sapiens, UniProt P78527) data.
Outgoing: 1 to 10 nM

###

- Target Of Assay: DNA-PK phosphorylation at Serine 2056 (Homo sapiens)
- Construct: FaDu cells were purchased from ATCC; host or cells: FaDu
- Experimental Protocol: Cellular Assay for Inhibition of DNA-PK Phosphorylation at Serine 2056 in FaDu cells (sandwich ELISA, neocarzinostatin)
- Assay type: cell-based
- Condition Context: pSer2056 DNA-PK, neocarzinostatin 1 μg/mL, Table 1
pIC50: −log10 of the molar value.
In this section we review reported pIC50 values for a set of compounds.

COCC(=O)N[C@H]1CC[C@@H](Oc2nc(N3CCOCC3)cc3ncccc23)CC1; 6.00 to 7.00
O=C(Nc1ccc(F)cc1)N[C@H]1CC[C@@H](Oc2nc(N3CCOCC3)cc3ncccc23)CC1; 6.00 to 7.00

Incoming: Return value of pIC50 for input O=C(COc1cnc(N[C@H]2CC[C@@H](Oc3nc(N4CCOCC4)cc4ncccc34)CC2)nc1)N1CCNCC1 , no commentary.
Outgoing: > 7.00

Incoming: Using known records, supply pIC50 for CSc1cnc2cc(N3CCOCC3)nc(O[C@H]3CC[C@@H](Nc4ncccn4)CC3)c2c1 [Compound 200d]
Outgoing: 6.00 to 7.00

Incoming: Kindly indicate its recorded pIC50. Item: Cn1c(=O)[nH]c2cnc(N[C@H]3CC[C@@H](Oc4nc(N5CCOCC5)cc5ncccc45)CC3)nc21
Outgoing: > 7.00

Incoming: Read off the recorded pIC50 for CN(C)C(=O)N[C@H]1CC[C@@H](Oc2nc(N3CCOCC3)cc3ncccc23)CC1
Outgoing: 6.00 to 7.00

Incoming: Retrieve pIC50 measured for CCOC(=O)c1cnc2cc(N3CCOCC3)nc(O[C@H]3CC[C@@H](Nc4ncc(OCC(=O)N(C)C)cn4)CC3)c2c1 and print it.
Outgoing: 5.00 to 6.00
